Target: Torsin-1A-interacting protein 2 (Homo sapiens)
Experiment: LULL1 binders on small-molecule microarray, primary screen, cell lysate, human LULL1 lysate, 635/667 nm fluorescence (AID 1092);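 further: probe is lysate of COS7 cells overexpressing human LULL1; score merges per-feature 667 nm fluorescence with signal-to-noise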
Conditions: hLULL1 lysate binding, 635 nm fluorescence, higher = more signal
test-readout: composite z-score
Number only, please.

Task item: Check Torsin-1A-interacting protein 2 (Homo sapiens) data and give composite z-score for COc1cc(NN2C(C(O)c3ccco3)C=CC3C(=O)N(c4ccccc4)C(=O)C32)cc(OC)c1OC (stereo not drawn) .
Reply: 2.41

Task item: Check Torsin-1A-interacting protein 2 (Homo sapiens) data and give composite z-score for `O=C1C[C@@](C(=O)NCCN2CCOCC2)(c2ccc([N+](=O)[O-])cc2)[C@@H](c2ccc(CO)cc2)N1CC12CC3CC(CC(C3)C1)C2` .
Reply: 3.31

Task item: Check Torsin-1A-interacting protein 2 (Homo sapiens) data and give composite z-score for `[N-]=[N+]=NCc1ccccc1C[C@]1(C(N)=O)COC(c2ccc(OCCCO)cc2)=N1` .
Reply: 3.1

Task item: Check Torsin-1A-interacting protein 2 (Homo sapiens) data and give composite z-score for `O=C(CS)NCCCCCCNC(=O)[C@@H]1C[C@@H]2C(=O)NCC(=O)N2[C@@H]1c1cccc(OCCO)c1` .
Reply: 3.09

Task item: Check Torsin-1A-interacting protein 2 (Homo sapiens) data and give composite z-score for `COc1cc(COC(C)=O)ccc1OC(C)=O` .
Reply: 0.418

Task item: Check Torsin-1A-interacting protein 2 (Homo sapiens) data and give composite z-score for `C=CCOC(=O)[C@H]1[C@@H]2C(=O)O[C@@H](c3ccccc3)[C@@H](c3ccccc3)N2[C@@H](c2ccc(OCCOC(=O)[C@H]3C[C@H]4C(=O)N[C@@H](CCCC[N+](C)(C)C)C(=O)N4[C@H]3c3ccc(O)cc3)cc2)[C@]12C(=O)Nc1ccc(I)cc12` .
Reply: 1.14

Task item: Check Torsin-1A-interacting protein 2 (Homo sapiens) data and give composite z-score for CC(C)C(CO)N1C(=O)[C@@H]2C3C(=O)OCCC/C=C\[C@H]3OC23C=CCN(CCN2CCOCC2)C(=O)[C@@H]13 (stereo partly drawn) .
Reply: -0.272

Task item: Check Torsin-1A-interacting protein 2 (Homo sapiens) data and give composite z-score for `C=CCNC(=O)[C@H]1[C@@H]2C(=O)O[C@@H](c3ccccc3)[C@@H](c3ccccc3)N2[C@@H](c2ccccc2OCCO)[C@]12C(=O)Nc1ccc(C#CCC(C(=O)OC)C(=O)OC)cc12` .
Reply: 3.25

Task item: Check Torsin-1A-interacting protein 2 (Homo sapiens) data and give composite z-score for C=CCC(OC(C)=O)[C@@H]1[C@@H](N(Cc2ccc(-c3ccccc3)cc2)C(=O)Cc2ccc(OC)cc2)c2cc(OCCCO)ccc2N1C(=O)Cc1ccc2ccccc2c1 (stereo partly drawn) .
Reply: 1.09

Task item: Check Torsin-1A-interacting protein 2 (Homo sapiens) data and give composite z-score for `C=C(COC)C(=O)CC[C@@H](OC(C)=O)c1ccc(CO)o1` .
Reply: -0.0809

Task item: Check Torsin-1A-interacting protein 2 (Homo sapiens) data and give composite z-score for `COC(=O)[C@@]1(Cc2ccc(F)cc2)[C@H]2c3cc(C(=O)N(C)C)n(Cc4ccccc4)c3C[C@H]2CN1C(=O)c1ccccc1` .
Reply: 1.73

Task item: Check Torsin-1A-interacting protein 2 (Homo sapiens) data and give composite z-score for O=C1NC(=O)C2C1C=CC(C(O)c1cccs1)N2Nc1ccc(Cl)cc1Cl (stereo not drawn) .
Reply: 2.37

Task item: Check Torsin-1A-interacting protein 2 (Homo sapiens) data and give composite z-score for `C=C(C(=O)CC[C@@H](OC(=O)c1cccnc1)c1ccccc1OCCO)C(C)C` .
Reply: -0.263

----------
Test system: XIP peptide (Xip251-270)
Test: small-molecule binders of XIP peptide, primary screen, biochemical, small-molecule microarray, fluorescence 635/667 nm, 0.5 µg/mL protein (AID 1183)
Details: small-molecule microarray binding, fluorescence 635 nm; higher = more signal
test-readout: composite z-score
Number only, please.

Task item: Check XIP peptide (Xip251-270) data and give composite z-score for `COC(=O)C[C@H]1O[C@]2(C(=O)N(C)c3ccccc32)[C@@H](C)[C@@H]1[Si](C)(C)F` .
Reply: 0.181

Task item: Check XIP peptide (Xip251-270) data and give composite z-score for `COC(=O)[C@@]1(Cc2ccc(F)cc2)[C@H]2c3cc(C(=O)N(C)C)n(Cc4cc(F)c(F)c(F)c4)c3C[C@H]2CN1C(=O)c1ccccc1` .
Reply: 0.626

Task item: Check XIP peptide (Xip251-270) data and give composite z-score for `O=C1O[C@H](c2ccccc2)[C@H](c2ccccc2)N2[C@H]1[C@@H](C(=O)N1CCCCCCC1)[C@]1(C(=O)Nc3ccc(C#CC4=CCCCC4)cc31)[C@H]2c1ccc(OCCO)cc1` .
Reply: 0.77

Task item: Check XIP peptide (Xip251-270) data and give composite z-score for `COc1ccc(CCNC(=O)[C@@H]2c3ccccc3C(=O)N(Cc3ccccc3Cl)[C@H]2c2ccc(CO)cc2)cc1` .
Reply: 0.431

Task item: Check XIP peptide (Xip251-270) data and give composite z-score for C=CCC(OC(C)=O)[C@@H]1[C@@H](N(Cc2ccc(-c3ccccc3)cc2)C(=O)Cc2ccc(OC)cc2)c2cc(OCCCO)ccc2N1C(=O)Cc1ccc2ccccc2c1 (stereo not given in full) .
Reply: -0.282

Task item: Check XIP peptide (Xip251-270) data and give composite z-score for `COCCCNC(=O)[C@@H]1c2ccccc2C(=O)N(Cc2ccccc2Cl)[C@H]1c1ccc(CO)cc1` .
Reply: 0.0699

Task item: Check XIP peptide (Xip251-270) data and give composite z-score for `COCCOC(=O)N1C(=O)[C@@]2(c3cc(C#Cc4ccc(OC)cc4)ccc31)[C@H](c1ccccc1OCCO)N1[C@H](c3ccccc3)[C@H](c3ccccc3)OC(=O)[C@H]1[C@@H]2C(=O)NC[C@H](O)c1ccccc1` .
Reply: 0.815

Task item: Check XIP peptide (Xip251-270) data and give composite z-score for `CCCC[C@@H]1C[C@H]1[C@@H](NC(=O)c1ccco1)c1ccc(-c2ccccc2)cc1` .
Reply: -0.321

Task item: Check XIP peptide (Xip251-270) data and give composite z-score for `COc1ccc(-c2cc3c(c(-c4ccc(Oc5ccccc5)cc4)n2)[Si](C(C)C)(C(C)C)OC3)cn1` .
Reply: 0.0792

Task item: Check XIP peptide (Xip251-270) data and give composite z-score for `CC#CC(=O)Oc1ccccc1C=CC(=O)OCC` .
Reply: 0.106

----------
Assay: mitochondrial membrane potential change in A549 cells, profiling panel, cell-based, JC-1 fluorescence, basal, 24 h, 100 nL (AID 1138);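 further: A549 lung adenocarcinoma cells under basal conditions with no added stimulus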
Details: higher = more signal
I'd be grateful if you could share measured z-score for these entries.
Number only, please.

Task item: Find the measured z-score of CC1(C)C2C=C(C(O)C3C=CC4C(=O)NC(=O)C4N3Nc3ccc(Cl)cc3Cl)C[C@@H]1C2 (stereo partly specified) and report it.
Reply: -1.44

Task item: Find the measured z-score of N#Cc1ccc(NN2C(C(O)C(c3ccccc3)c3ccccc3)C=CC3C(=O)N(c4ccccc4)C(=O)C32)cc1 (stereo unspecified) and report it.
Reply: 1.49

Task item: Find the measured z-score of CC1CC/C=C\[C@H]2OC34C=CCN(Cc5ccccc5)C(=O)[C@H]3N(CCCO)C(=O)[C@@H]4C2C(=O)O1 (stereo partly specified) and report it.
Reply: -0.178

Task item: Find the measured z-score of CC(C)C(O)C1C=CC2C(=O)N(c3ccccc3)C(=O)C2N1Nc1ccc([N+](=O)[O-])cc1 (stereo unspecified) and report it.
Reply: -0.0625

Task item: Find the measured z-score of `C=CCOC(=O)[C@@H]1[C@H]2C(=O)O[C@H](c3ccccc3)[C@H](c3ccccc3)N2[C@H](c2ccc(OCCOC(=O)[C@H]3C[C@H]4C(=O)N5CCC[C@H]5C(=O)N4[C@H]3c3ccc(O)cc3)cc2)[C@@]12C(=O)Nc1ccc(I)cc12` and report it.
Reply: -1.6

Task item: Find the measured z-score of `CCOC(=O)C1=CC[C@@H](c2ccccc2)N(S(=O)(=O)c2ccc(C)cc2)[C@H]1c1ccccc1C` and report it.
Reply: 1.86

Task item: Find the measured z-score of COc1ccc(C(O)C2C=CC3C(=O)N(Cc4ccccc4)C(=O)C3N2n2cnnc2)cc1OCc1ccccc1 (stereo unspecified) and report it.
Reply: -1.03

Task item: Find the measured z-score of `O=C1O[C@H](c2ccccc2)[C@H](c2ccccc2)N2[C@H]1[C@@H](C(=O)N1CCCCCCC1)[C@]1(C(=O)Nc3ccc(C#CCCO)cc31)[C@H]2c1ccccc1OCCO` and report it.
Reply: 0.372

Task item: Find the measured z-score of `COCCCNC(=O)[C@]1(CCC(=O)OC(C)(C)C)N=C(c2ccc(OCCCO)cc2)O[C@@H]1c1ccccc1CN=[N+]=[N-]` and report it.
Reply: -0.627

Task item: Find the measured z-score of `C=C(COC)/C(=C/C[C@@H](OC(=O)c1ccncc1)c1ccc(CO)o1)c1cc(C(=O)OC)ccc1OC` and report it.
Reply: 0.526

Task item: Find the measured z-score of OCCCC1=CC(c2cccs2)N(Cc2cc3c(cc2Br)OCO3)CC1 (stereo unspecified) and report it.
Reply: 1.39

Task item: Find the measured z-score of O=C1C2C=CC(C(O)c3cc(C(F)(F)F)cc(C(F)(F)F)c3)N(n3cnnc3)C2C(=O)N1Cc1ccccc1 (stereo unspecified) and report it.
Reply: -1.57

Task item: Find the measured z-score of `COc1ccc(/C=C/C=O)cc1` and report it.
Reply: 0.769

Task item: Find the measured z-score of `O=C1C[C@@](C(=O)NC2CC2)(c2ccc([N+](=O)[O-])cc2)[C@@H](c2ccc(CO)cc2I)N1C1CCCCC1` and report it.
Reply: 1.75

Task item: Find the measured z-score of `COCCCNC(=O)[C@@]1(C)c2ccccc2C(=O)N(C(C)C)[C@H]1c1ccc(CO)cc1` and report it.
Reply: 0.168

Task item: Find the measured z-score of O=C1C2C=CC(C(O)c3cccc4ccccc34)N(Nc3ccccc3F)C2C(=O)N1c1ccccc1 (stereo unspecified) and report it.
Reply: -0.968

Task item: Find the measured z-score of `COc1ccccc1CN1C(=O)c2ccccc2[C@@]2(Cc3ccccc3N(CC(C)C)C2=O)[C@@H]1c1ccc(CO)cc1` and report it.
Reply: 0.379

Task item: Find the measured z-score of `COCCOC(=O)N1C(=O)[C@@]2(c3ccccc31)[C@H](c1ccc(O)cc1)N1[C@H](c3ccccc3)[C@H](c3ccccc3)OC(=O)[C@H]1[C@@H]2C(=O)Nc1nc2ccccc2s1` and report it.
Reply: -2.42

Task item: Find the measured z-score of O=C1NC(=O)C2C1C=CC(C(O)c1cccs1)N2Nc1ccc(Cl)cc1Cl (stereo unspecified) and report it.
Reply: -0.384

Task item: Find the measured z-score of `C=C(CCCC)/C(=C/C[C@H](OC(C)=O)c1ccccc1OCCO)c1cc(C(=O)OC)ccc1OC` and report it.
Reply: 1.39

Task item: Find the measured z-score of `CCCCCCc1nc(-c2cc(C)c(OC)c(C)c2)cc2c1[Si](C(C)C)(C(C)C)OC2` and report it.
Reply: -0.693
